Every entry's value here was drawn from ChEMBL document CHEMBL1153900.

Tested on: Staphylococcus aureus
Experiment: Antimicrobial activity against methicillin-resistant Staphylococcus aureus L32 clinical isolate by CLIS method
Format: functional
Would you mind telling me the reported MIC of each entry?
Numbers only, in µM.

- CS[C@H]1SC[C@H]2C(=O)N(C)[C@@H](C(C)C)C(=O)OC[C@@H](NC(=O)c3cnc4ccccc4n3)C(=O)N[C@@H](C)C(=O)N(C)[C@@H]1C(=O)N(C)[C@@H](C(C)C)C(=O)OC[C@@H](NC(=O)c1cnc3ccccc3n1)C(=O)N[C@@H](C)C(=O)N2C [ECHINOMYCIN]: 0.03

Q: Which value of MIC has been reported for CS[C@@H]1[C@H]2C(=O)N(C)[C@@H](C(C)C)C(=O)OC[C@@H](NC(=O)c3cnc4ccccc4n3)C(=O)N[C@@H](C)C(=O)N(C)[C@@H](C[S+]1[O-])C(=O)N(C)[C@@H](C(C)C)C(=O)OC[C@@H](NC(=O)c1cnc3ccccc3n1)C(=O)N[C@@H](C)C(=O)N2C (some centres undefined) in the records?
Ans: 1.79
